Assay read-out Kd on UniProtKB Q9UKE5; records merged from the literature.
Sequence (Q9UKE5 whole entry): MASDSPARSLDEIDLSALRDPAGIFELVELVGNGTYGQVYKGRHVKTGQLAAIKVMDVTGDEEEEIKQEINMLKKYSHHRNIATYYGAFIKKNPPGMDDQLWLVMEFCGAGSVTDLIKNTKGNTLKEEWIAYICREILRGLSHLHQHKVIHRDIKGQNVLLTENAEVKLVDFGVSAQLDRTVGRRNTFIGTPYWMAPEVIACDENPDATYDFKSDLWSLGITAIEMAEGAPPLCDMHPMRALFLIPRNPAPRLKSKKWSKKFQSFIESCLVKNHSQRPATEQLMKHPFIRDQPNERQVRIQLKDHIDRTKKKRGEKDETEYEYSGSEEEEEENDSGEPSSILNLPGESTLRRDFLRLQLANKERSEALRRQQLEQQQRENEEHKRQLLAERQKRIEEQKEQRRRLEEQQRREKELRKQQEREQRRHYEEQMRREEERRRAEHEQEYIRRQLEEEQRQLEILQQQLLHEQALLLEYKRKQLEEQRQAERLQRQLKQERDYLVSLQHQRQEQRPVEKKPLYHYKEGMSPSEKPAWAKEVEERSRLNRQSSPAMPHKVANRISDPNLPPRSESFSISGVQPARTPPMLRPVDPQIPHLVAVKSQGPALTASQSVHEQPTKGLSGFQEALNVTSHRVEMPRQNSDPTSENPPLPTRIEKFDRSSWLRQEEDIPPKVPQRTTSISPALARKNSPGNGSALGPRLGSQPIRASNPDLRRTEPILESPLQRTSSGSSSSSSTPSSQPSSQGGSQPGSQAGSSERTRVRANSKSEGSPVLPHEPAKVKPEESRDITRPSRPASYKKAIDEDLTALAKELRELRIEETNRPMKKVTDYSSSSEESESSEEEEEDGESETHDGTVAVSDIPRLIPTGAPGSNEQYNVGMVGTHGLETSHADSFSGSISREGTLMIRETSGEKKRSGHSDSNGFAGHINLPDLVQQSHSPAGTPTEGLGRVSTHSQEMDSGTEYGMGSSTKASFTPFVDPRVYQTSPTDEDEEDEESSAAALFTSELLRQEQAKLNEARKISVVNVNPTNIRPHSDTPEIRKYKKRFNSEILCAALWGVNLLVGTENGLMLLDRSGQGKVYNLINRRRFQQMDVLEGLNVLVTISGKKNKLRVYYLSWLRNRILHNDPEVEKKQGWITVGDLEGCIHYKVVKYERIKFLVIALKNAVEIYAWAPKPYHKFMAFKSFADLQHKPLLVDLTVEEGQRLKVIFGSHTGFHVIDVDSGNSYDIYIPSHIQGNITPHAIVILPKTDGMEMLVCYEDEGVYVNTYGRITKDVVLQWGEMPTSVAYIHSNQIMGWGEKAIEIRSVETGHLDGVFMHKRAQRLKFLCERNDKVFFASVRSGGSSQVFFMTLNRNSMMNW
Readout Label: Kd (µM)

{"Structure": "C1=C/COCc2cc(ccc2OCCN2CCCC2)Nc2nccc(n2)-c2cccc(c2)COC/1", "Kd (µM)": 0.089}
{"Structure": "N#Cc1ccc(-c2cnc3[nH]cc(NC(=O)c4cccnc4)c3c2)cc1", "Kd (µM)": 0.16}

(a) CC(C)c1cc(CNc2nc(Nc3cc(C4CC4)[nH]n3)cc(N3CCN(C)CC3)n2)on1
(b) COc1cc(Nc2ncc(Cl)c(-c3cccc(CC#N)c3)n2)ccc1N1CCN(C)CC1
**Q:** # query: argmin of Kd over a and b Use the label to indicate which entry you chose.
**A:** b
(b: 0.086 µM, a: 0.184 µM)
